assay: Cell permeability, flux assay using Caco-2 cells; format: in vitro ADME; settings: human, basal to apical, 2 hours incubation
Square brackets hold non-standard residues; d marks the D form. Peptide text beside a SMILES is read from it. * marks the point of attachment. NMeVal(N-(CH2)3COOH) = CC(C)[C@@H](C(=O)*)N(C)CCCC(=O)O; Dolaproine = CO[C@@H]([C@@H]1CCCN1)[C@@H](C)C(=O)O; Dil = CC[C@H](C)[C@H](NC)[C@@H](CC(=O)O)OC; Morpholide = C1CN(*)CCO1; X1 = O=C(NN*)c1ccccc1
# Papp B→A at 2 h annotations
Answer with a number only, understood to be in ×10⁻⁶ cm/s.

Looking up CC[C@H](C)[C@@H]([C@@H](CC(=O)N1CCC[C@H]1[C@H](OC)[C@@H](C)C(=O)N[C@@H](Cc1ccccc1)C(=O)NNC(=O)c1ccccc1)OC)N(C)C(=O)[C@@H](NC(=O)[C@H](C(C)C)N(C)CCCC(=O)O)C(C)C [Example 14] ({NMeVal(N-(CH2)3COOH)}-V[Dil][Dolaproine]F-X1) , I see its Papp B→A at 2 h listed as 0.3

Looking up CC[C@H](C)[C@@H]([C@@H](CC(=O)N1CCC[C@H]1[C@H](OC)[C@@H](C)C(=O)N[C@@H](Cc1ccccc1)C(=O)OC)OC)N(C)C(=O)[C@@H](NC(=O)[C@H](C(C)C)N(C)CCCC(=O)O)C(C)C [Example 7] ({NMeVal(N-(CH2)3COOH)}-V[Dil][Dolaproine]F-OMe) , I see its Papp B→A at 2 h listed as 1.8

Looking up CC[C@H](C)[C@@H]([C@@H](CC(=O)N1CCC[C@H]1[C@H](OC)[C@@H](C)C(=O)N[C@@H](Cc1ccccc1)C(=O)N1CCOCC1)OC)N(C)C(=O)[C@@H](NC(=O)[C@H](C(C)C)N(C)CCCC(=O)O)C(C)C [Example 23] ({NMeVal(N-(CH2)3COOH)}-V[Dil][Dolaproine]F-Morpholide) , I see its Papp B→A at 2 h listed as 0.2

====

assay: Cell permeability, flux assay using Caco-2 cells; type: in vitro ADME; details: human, basal to apical, 2 hours incubation
Square brackets hold non-standard residues; d marks the D form. Peptide text beside a SMILES is read from it. * marks the point of attachment. NMeVal(N-(CH2)3COOH) = CC(C)[C@@H](C(=O)*)N(C)CCCC(=O)O; Dolaproine = CO[C@@H]([C@@H]1CCCN1)[C@@H](C)C(=O)O; Dil = CC[C@H](C)[C@H](NC)[C@@H](CC(=O)O)OC; X3 = CC(C)[C@@H](C(=O)*)N(C)CCCCCC(=O)O; OBn = c1ccc(CO*)cc1
Measured metric: Papp B→A at 2 h (×10⁻⁶ cm/s)
Answer with a number only, understood to be in ×10⁻⁶ cm/s.

Compound	Unit tag	Papp B→A at 2 h
CC[C@H](C)[C@@H]([C@@H](CC(=O)N1CCC[C@H]1[C@H](OC)[C@@H](C)C(=O)N[C@@H](Cc1c[nH]c2ccccc12)C(N)=O)OC)N(C)C(=O)[C@@H](NC(=O)[C@H](C(C)C)N(C)CCCCCC(=O)O)C(C)C [Example 19] (X3-V[Dil][Dolaproine]W-NH2)	×10⁻⁶ cm/s	0.2
CC[C@H](C)[C@@H]([C@@H](CC(=O)N1CCC[C@H]1[C@H](OC)[C@@H](C)C(=O)N[C@@H](Cc1c[nH]c2ccccc12)C(=O)OCc1ccccc1)OC)N(C)C(=O)[C@@H](NC(=O)[C@H](C(C)C)N(C)CCCC(=O)O)C(C)C [Example 8] ({NMeVal(N-(CH2)3COOH)}-V[Dil][Dolaproine]W-OBn)	×10⁻⁶ cm/s	2.2
CC[C@H](C)[C@@H]([C@@H](CC(=O)N1CCC[C@H]1[C@H](OC)[C@@H](C)C(=O)N[C@@H](Cc1c[nH]c2ccccc12)C(N)=O)OC)N(C)C(=O)[C@@H](NC(=O)[C@H](C(C)C)N(C)CCCC(=O)O)C(C)C [Example 18] ({NMeVal(N-(CH2)3COOH)}-V[Dil][Dolaproine]W-NH2)	×10⁻⁶ cm/s	0.2
CCCNC(=O)[C@]1(NC(=O)[C@H](C)[C@@H](OC)[C@@H]2CCCN2C(=O)C[C@@H](OC)[C@H]([C@@H](C)CC)N(C)C(=O)[C@@H](NC(=O)[C@H](C(C)C)N(C)CCCC(=O)O)C(C)C)C[C@@H]1c1ccccc1	×10⁻⁶ cm/s	1.1
CCOC(=O)[C@]1(NC(=O)[C@H](C)[C@@H](OC)[C@@H]2CCCN2C(=O)C[C@@H](OC)[C@H]([C@@H](C)CC)N(C)C(=O)[C@@H](NC(=O)[C@H](C(C)C)N(C)CCCC(=O)O)C(C)C)C[C@@H]1c1ccccc1	×10⁻⁶ cm/s	1.5
CC[C@H](C)[C@@H]([C@@H](CC(=O)N1CCC[C@H]1[C@H](OC)[C@@H](C)C(=O)N[C@@]1(C(N)=O)C[C@@H]1c1ccccc1)OC)N(C)C(=O)[C@@H](NC(=O)[C@H](C(C)C)N(C)CCCC(=O)O)C(C)C	×10⁻⁶ cm/s	0.2

Then this compound:
Looking up CC[C@H](C)[C@@H]([C@@H](CC(=O)N1CCC[C@H]1[C@H](OC)[C@@H](C)C(=O)N[C@@H](Cc1ccccc1)C(N)=O)OC)N(C)C(=O)[C@@H](NC(=O)[C@H](C(C)C)N(C)CCCC(=O)O)C(C)C [Example 13] ({NMeVal(N-(CH2)3COOH)}-V[Dil][Dolaproine]F-NH2) , I see its Papp B→A at 2 h listed as 1
